- Assay Method Text: Selectivity index, ratio of ED50 for human HepG2 cells to MIC for Staphylococcus aureus 3R7089 strain Oxford/ATCC 9144
- Type: toxicity
- Experimental Setup: read-out: Selectivity Index
Square brackets hold non-standard residues; d marks the D form. Peptide text beside a SMILES is read from it. Nphe = O=C(O)CNCc1ccccc1; Nlys = NCCCCNCC(=O)O
Measure: selectivity ratio
Could you keep your reply to the number by itself?

NCCCCNCC(=O)N(CC(=O)N(CC(=O)N(CCCCN)CC(=O)N(CC(=O)N(CC(N)=O)Cc1ccccc1)Cc1ccccc1)Cc1ccccc1)Cc1ccccc1 (H-[Nlys][Nphe][Nphe][Nlys][Nphe][Nphe]-NH2); 1

Here's the next entry for you.
For reference, reported selectivity ratio for NCCCCNCC(=O)N(CC(=O)N(CC(=O)N(CCCCN)CC(=O)N(CC(=O)N(CC(=O)N(CCCCN)CC(=O)N(CC(=O)N(CC(N)=O)Cc1cccc(F)c1)Cc1cccc(F)c1)Cc1cccc(F)c1)Cc1cccc(F)c1)Cc1cccc(F)c1)Cc1cccc(F)c1 stands at 7
